test: solvent given as SMILES; conditions: in ClC(Cl)Cl
READOUT NAME: absorption maximum (nm)
Provide the reading as a plain figure in nm.

Known results for compounds:
1. Cc1ccccc1/C(C#N)=C/c1ccc(N(C)C)cc1 = 378
2. CCC1=C(C)C2=C(c3cc(C(=O)Cl)cc(C(=O)Cl)c3)c3c(C)c(CC)c(C)n3[B-](F)(F)[N+]2=C1C = 532
3. COc1ccc2cc(-c3ccccc3CC#N)c(=O)oc2c1 = 336
4. CCCCCCN1C(=O)c2cccc3c(-c4scc5c4OCCO5)ccc(c23)C1=O = 390
5. C(=C\c1ccnc2ccccc12)/c1ccc(/C=C/c2ccnc3ccccc23)cc1 = 370

Looking up O=C1Cc2ccc(cc2)CC(=O)Cc2ccc(c3nsnc23)C1 , I found its absorption maximum recorded as 384

Just so you know, measured absorption maximum for c1cc2ccc3cccc4c(-c5cc(-c6nccs6)nc(-c6nccs6)c5)cc(c1)c2c34 came out at 351

So, c1ccc(-c2nc(-c3ccccc3)c(N(c3ccccc3)c3ccccc3)s2)cc1 ? Its absorption maximum was 367

Form: compound = CC1=[N+]2C(=C(c3ccc(N4CCOCC4)cc3)c3ccc(C)n3[B-]2(F)F)C=C1 ; absorption maximum = 511

Form field absorption maximum, entry CCCCCCCCCCOc1cc(OCCCCCCCCCC)cc(C2=C3C(/C=C/c4ccc(N(C)C)cc4)=C(C#Cc4ccc(C(C)(C)C)cc4)C(/C=C/c4ccc(N(C)C)cc4)=[N+]3[B-](F)(F)n3c(/C=C/c4ccc(N(C)C)cc4)c(C#Cc4ccc(C(C)(C)C)cc4)c(/C=C/c4ccc(N(C)C)cc4)c32)c1 : 797
